# Test system: M14
# ASSAY NOTES: Growth inhibition of human M14 cells assessed as reduction in cell viability measured after 48 hrs by SRB assay
# Type: functional
OBSERVED PROPERTY: log10(GI50) (log10 of the value in µM)
Parameter value (number): base-10 log of GI50 in µM.

// below: answered molecules
CC(C)(C)n1cc(-c2ccnc(NCCCNS(=O)(=O)c3ccc(Cl)cc3)c2)c(-c2cccc(O)c2)n1	0.24
CC(C)(C)n1cc(-c2ccnc(NCCCNS(=O)(=O)c3cccc4ccccc34)c2)c(-c2cccc(O)c2)n1	0.23
CC(C)(C)n1cc(-c2ccnc(NCCCNS(=O)(=O)c3ccc(C(F)(F)F)cc3)c2)c(-c2cccc(O)c2)n1	0.30
O=C1c2ccccc2-c2n[nH]c3cccc1c23	2.00

Alright, here's another molecule for you.
Entry under test: "CC(C)(C)n1cc(-c2ccnc(NCCCNS(=O)(=O)c3ccc(Br)cc3)c2)c(-c2cccc(O)c2)n1" . Its log10(GI50) was 0.25

---

# SYSTEM TESTED: Mitogen-activated protein kinase 8 (Homo sapiens)
# Sequence (P45983 whole entry): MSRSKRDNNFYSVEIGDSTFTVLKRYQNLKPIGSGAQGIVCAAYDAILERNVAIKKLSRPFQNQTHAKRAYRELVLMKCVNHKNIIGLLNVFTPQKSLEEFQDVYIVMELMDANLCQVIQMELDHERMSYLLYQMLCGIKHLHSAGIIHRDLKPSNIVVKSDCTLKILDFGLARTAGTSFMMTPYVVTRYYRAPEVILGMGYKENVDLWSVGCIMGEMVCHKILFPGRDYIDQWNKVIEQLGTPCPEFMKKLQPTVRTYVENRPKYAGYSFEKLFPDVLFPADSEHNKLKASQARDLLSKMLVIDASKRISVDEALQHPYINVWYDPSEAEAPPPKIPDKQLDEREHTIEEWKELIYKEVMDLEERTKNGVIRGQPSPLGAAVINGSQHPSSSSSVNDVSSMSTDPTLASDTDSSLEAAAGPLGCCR
# ASSAY NOTES: Inhibition of JNK1 (unknown origin) expressed in HEK293 cells assessed as target engagement incubated for 1 hr by NanoBRET assay
# Type: cell-based
OBSERVED PROPERTY: IC50 (nM)
Give the quantity in nM, number only.

Entry under test: "COc1ccc(S(=O)(=O)NCCCNc2cc(-c3cn(C(C)(C)C)nc3-c3cccc(O)c3)ccn2)cc1" . Its IC50 was 2810

---

# Tested on: ACHN
# ASSAY NOTES: Growth inhibition of human ACHN cells assessed as reduction in cell viability measured after 48 hrs by SRB assay
# Assay type: functional
Measured GI50 by item
Give the quantity in nM, number only.

// below: answered compounds
O=C1c2ccccc2-c2n[nH]c3cccc1c23	6640
CC(C)(C)n1cc(-c2ccnc(NCCCNS(=O)(=O)c3ccc(Cl)cc3)c2)c(-c2cccc(O)c2)n1	1970
CC(C)(C)n1cc(-c2ccnc(NCCCNS(=O)(=O)c3ccc(Br)cc3)c2)c(-c2cccc(O)c2)n1	1990

Entry under test: "CC(C)(C)n1cc(-c2ccnc(NCCCNS(=O)(=O)c3ccc(C(F)(F)F)cc3)c2)c(-c2cccc(O)c2)n1" . Its GI50 was 1880

Entry under test: "CC(C)(C)n1cc(-c2ccnc(NCCCNS(=O)(=O)c3cccc4ccccc34)c2)c(-c2cccc(O)c2)n1" . Its GI50 was 2700

---

Measured inhibition by item
# SYSTEM TESTED: Mitogen-activated protein kinase 10 (Homo sapiens)
# Sequence (P53779 whole entry): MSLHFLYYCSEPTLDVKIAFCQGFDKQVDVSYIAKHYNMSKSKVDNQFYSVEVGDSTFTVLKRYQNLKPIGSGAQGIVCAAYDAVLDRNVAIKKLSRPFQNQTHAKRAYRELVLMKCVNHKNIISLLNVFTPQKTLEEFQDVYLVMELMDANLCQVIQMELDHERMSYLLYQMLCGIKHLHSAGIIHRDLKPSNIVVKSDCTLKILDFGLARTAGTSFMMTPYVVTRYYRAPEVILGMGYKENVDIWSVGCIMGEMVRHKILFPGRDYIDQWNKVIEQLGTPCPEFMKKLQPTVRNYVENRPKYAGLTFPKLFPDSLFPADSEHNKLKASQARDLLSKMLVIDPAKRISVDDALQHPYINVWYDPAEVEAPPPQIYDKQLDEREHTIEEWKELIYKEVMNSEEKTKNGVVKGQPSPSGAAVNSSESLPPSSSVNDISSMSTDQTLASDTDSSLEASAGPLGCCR
# ASSAY NOTES: Inhibition of human JNK3 at 10 uM in presence of ATP relative to control
Give the quantity in %, number only.

// below: answered compounds
CC(C)(C)n1cc(-c2ccnc(NCCCNS(=O)(=O)c3ccc(Br)cc3)c2)c(-c2cccc(O)c2)n1	99.2
CC(C)(C)n1cc(-c2ccnc(NCCCNS(=O)(=O)c3ccc(Cl)cc3)c2)c(-c2cccc(O)c2)n1	99.2
CC(C)(C)n1cc(-c2ccnc(NCCCNS(=O)(=O)c3ccc(C(F)(F)F)cc3)c2)c(-c2cccc(O)c2)n1	98.6
CC(C)(C)n1cc(-c2ccnc(NCCCNS(=O)(=O)c3cccc4ccccc34)c2)c(-c2cccc(O)c2)n1	98.7
CC(C)(C)n1cc(-c2ccnc(NCCCNS(=O)(=O)c3ccccc3)c2)c(-c2cccc(O)c2)n1	99.1

Alright, here's another compound for you.
inhibition for Mitogen-activated protein kinase 10 (Homo sapiens) with input "CC(C)(C)n1cc(-c2ccnc(NCCCNS(=O)(=O)c3cccc(F)c3)c2)c(-c2cccc(O)c2)n1" equals 98.2
